# TEST_DETAILS: Cytotoxicity against human HepG2.2.15 cells
# Assay type: cell-based, HepG2 2.2.15
QUANTITY_KIND: CC50

Q) Requested field: CC50. Item: Nc1ncnc2c1ncn2C1=C[C@H](CO)[C@@H](O)[C@H]1O
A) > 100 µM
